Assay: Protein binding in rat plasma by equilibrium dialysis method
Format: ADME, cell-free
Settings: read-out: PPB (converted)
Metric: fraction unbound
Form field (numeric): enter value without unit.

In: For the compound `O=C(NCc1ccc(OC(F)(F)F)c(Cl)c1)c1ccc(S(=O)(=O)Nc2nccs2)c(F)c1` , give its reported fraction unbound.
Out: 0.002

---

Molecular target: Sodium channel protein type 10 subunit alpha (Homo sapiens)
Sequence (Q9Y5Y9 whole entry): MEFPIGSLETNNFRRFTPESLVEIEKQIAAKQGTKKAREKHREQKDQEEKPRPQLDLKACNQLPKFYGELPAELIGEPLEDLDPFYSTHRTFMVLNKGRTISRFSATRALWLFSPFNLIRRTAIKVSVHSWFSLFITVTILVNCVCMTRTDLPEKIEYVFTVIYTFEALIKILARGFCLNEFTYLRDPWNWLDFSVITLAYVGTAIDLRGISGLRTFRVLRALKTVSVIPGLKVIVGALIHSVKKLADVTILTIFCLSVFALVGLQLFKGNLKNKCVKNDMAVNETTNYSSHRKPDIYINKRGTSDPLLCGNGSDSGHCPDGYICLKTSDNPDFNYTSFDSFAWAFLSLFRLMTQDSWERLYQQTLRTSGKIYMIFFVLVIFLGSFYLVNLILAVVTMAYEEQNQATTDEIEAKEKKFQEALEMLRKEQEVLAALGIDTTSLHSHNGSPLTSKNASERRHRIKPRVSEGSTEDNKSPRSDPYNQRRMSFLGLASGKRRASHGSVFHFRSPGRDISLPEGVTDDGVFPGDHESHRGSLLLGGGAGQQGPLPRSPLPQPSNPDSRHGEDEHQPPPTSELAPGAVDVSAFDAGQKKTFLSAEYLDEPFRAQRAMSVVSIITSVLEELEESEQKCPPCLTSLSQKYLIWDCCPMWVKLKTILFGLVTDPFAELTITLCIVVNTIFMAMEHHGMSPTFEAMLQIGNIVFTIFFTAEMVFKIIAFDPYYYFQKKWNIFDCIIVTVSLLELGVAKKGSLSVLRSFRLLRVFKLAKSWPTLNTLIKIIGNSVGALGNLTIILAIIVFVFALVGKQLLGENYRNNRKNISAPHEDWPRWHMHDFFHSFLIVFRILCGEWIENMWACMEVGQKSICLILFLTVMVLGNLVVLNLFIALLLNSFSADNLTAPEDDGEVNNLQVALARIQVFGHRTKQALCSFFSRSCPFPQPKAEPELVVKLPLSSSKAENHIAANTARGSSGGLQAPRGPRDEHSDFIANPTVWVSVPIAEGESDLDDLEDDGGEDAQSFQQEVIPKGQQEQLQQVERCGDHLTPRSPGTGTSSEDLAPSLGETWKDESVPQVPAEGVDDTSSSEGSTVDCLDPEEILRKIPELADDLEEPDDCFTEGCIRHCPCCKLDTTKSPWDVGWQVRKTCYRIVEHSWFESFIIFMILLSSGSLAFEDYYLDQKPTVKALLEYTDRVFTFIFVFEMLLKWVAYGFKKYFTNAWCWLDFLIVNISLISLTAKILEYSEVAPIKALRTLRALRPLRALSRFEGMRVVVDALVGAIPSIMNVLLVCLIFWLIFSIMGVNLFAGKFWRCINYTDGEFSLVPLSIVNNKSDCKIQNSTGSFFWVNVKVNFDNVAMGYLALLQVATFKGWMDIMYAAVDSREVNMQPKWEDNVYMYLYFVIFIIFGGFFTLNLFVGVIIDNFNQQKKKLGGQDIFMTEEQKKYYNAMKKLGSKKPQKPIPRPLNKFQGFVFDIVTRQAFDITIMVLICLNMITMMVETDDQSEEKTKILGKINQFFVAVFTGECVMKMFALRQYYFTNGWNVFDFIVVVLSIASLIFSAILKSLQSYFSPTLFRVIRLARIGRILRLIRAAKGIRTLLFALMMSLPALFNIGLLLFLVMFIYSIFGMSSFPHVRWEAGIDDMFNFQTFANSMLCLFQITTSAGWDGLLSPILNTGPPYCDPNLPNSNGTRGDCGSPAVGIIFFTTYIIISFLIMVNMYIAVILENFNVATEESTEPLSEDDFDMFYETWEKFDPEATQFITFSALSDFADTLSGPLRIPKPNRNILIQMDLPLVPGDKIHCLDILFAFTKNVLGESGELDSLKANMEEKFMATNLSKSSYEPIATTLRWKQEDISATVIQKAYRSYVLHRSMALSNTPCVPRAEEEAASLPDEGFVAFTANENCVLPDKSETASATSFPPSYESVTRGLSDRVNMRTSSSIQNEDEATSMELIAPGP
Assay: Inhibition of human NaV1.8
For each entry below, report its IC50 value.
Give the value in µM but do not write µM after it.

In: For the molecule `O=S(=O)(Nc1ncns1)c1ccc(OCc2ccc(OC(F)(F)F)c(Cl)c2)cc1` , give its reported IC50.
Out: 15.1

In: For the molecule `O=C(Nc1ccc(S(=O)(=O)Nc2nccs2)cc1)C(c1ccccc1)c1ccccc1` , give its reported IC50.
Out: 3

In: For the molecule `O=C(NCc1ccc(OC(F)(F)F)c(Cl)c1)c1ccc(S(=O)(=O)Nc2nccs2)c(F)c1` , give its reported IC50.
Out: 12.4

In: For the molecule `O=C(NCc1ccc(OC(F)(F)F)c(Cl)c1)c1ccc(S(=O)(=O)Nc2ncns2)c(F)c1` , give its reported IC50.
Out: 11.3

---

Experiment: Fraction unbound in rat plasma
Assay type: ADME, cell-free
Metric: fraction unbound
Form field (numeric): enter value without unit.

In: For the molecule `O=S(=O)(Nc1ncns1)c1ccc(OCc2ccc(OC(F)(F)F)c(Cl)c2)cc1` , give its reported fraction unbound.
Out: 0.00024

---

Target: Sodium channel protein type 3 subunit alpha (Homo sapiens, UniProt Q9NY46)
Sequence (Q9NY46 whole entry): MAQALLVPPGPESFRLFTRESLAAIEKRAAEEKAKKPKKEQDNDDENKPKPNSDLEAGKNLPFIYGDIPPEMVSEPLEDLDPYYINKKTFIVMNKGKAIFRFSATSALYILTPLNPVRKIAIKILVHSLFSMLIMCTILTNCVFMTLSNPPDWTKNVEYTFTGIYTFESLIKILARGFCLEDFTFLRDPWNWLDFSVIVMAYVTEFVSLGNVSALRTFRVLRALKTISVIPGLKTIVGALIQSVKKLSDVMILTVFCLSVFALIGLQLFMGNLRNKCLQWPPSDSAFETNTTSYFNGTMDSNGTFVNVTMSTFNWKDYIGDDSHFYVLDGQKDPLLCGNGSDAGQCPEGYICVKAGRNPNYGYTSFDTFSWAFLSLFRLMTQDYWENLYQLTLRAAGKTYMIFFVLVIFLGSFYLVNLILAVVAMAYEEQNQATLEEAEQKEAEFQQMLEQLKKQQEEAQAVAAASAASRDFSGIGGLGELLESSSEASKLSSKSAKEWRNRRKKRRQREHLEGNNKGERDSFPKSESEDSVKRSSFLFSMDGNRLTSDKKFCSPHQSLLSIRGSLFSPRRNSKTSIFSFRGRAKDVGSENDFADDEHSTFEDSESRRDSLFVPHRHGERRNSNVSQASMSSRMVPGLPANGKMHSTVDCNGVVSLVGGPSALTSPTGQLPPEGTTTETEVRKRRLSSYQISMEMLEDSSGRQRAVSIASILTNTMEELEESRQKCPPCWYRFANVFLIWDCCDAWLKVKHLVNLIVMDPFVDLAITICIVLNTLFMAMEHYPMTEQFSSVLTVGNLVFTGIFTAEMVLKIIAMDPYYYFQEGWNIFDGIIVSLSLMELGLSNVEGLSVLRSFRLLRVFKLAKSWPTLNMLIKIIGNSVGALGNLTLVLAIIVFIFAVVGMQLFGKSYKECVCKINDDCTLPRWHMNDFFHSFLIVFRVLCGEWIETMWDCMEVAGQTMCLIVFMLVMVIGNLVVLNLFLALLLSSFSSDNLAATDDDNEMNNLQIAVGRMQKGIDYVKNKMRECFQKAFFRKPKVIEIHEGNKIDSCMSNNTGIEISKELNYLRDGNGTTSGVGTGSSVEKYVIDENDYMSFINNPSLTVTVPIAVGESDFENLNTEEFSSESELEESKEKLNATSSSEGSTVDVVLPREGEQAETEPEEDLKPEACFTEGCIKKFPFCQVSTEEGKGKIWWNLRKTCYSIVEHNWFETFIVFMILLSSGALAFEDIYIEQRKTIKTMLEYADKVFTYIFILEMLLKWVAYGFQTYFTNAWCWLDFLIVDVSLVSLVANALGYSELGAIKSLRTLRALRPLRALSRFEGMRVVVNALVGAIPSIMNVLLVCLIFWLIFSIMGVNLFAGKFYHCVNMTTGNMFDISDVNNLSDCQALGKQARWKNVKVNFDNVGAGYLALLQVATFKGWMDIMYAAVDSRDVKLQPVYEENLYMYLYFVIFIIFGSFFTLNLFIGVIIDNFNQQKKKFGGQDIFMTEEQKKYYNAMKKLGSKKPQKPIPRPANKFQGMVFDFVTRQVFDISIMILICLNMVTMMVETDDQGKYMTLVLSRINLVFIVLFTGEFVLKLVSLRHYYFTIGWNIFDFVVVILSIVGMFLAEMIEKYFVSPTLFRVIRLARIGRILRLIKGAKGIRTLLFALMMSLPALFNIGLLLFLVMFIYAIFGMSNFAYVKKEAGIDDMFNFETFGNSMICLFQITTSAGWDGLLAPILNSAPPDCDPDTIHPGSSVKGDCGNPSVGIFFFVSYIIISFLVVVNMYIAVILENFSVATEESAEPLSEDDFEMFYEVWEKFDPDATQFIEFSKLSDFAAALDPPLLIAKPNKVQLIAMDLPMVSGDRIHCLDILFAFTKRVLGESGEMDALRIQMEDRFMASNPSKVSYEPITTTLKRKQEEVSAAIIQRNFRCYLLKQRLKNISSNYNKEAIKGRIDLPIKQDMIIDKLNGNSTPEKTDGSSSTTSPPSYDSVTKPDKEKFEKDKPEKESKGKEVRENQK
Assay: Inhibition of human NaV1.3 expressed in HEK cells by electrophysiological method
Format: cell-based
hey, just use true if measured IC50 is less than 200 nM, otherwise false

In: Please state whether IC50 is below 200 nM for `O=S(=O)(Nc1nccs1)c1ccc(S(=O)(=O)N2CC[C@H](Oc3c(Cl)cccc3Cl)C2)cc1F`
Out: false

In: Please state whether IC50 is below 200 nM for `CN(Cc1ccc(OC(F)(F)F)c(Cl)c1)C(=O)c1ccc(S(=O)(=O)Nc2ncns2)c(F)c1`
Out: false

In: Please state whether IC50 is below 200 nM for `O=S(=O)(Nc1nccs1)c1ccc(-c2nnc(Cc3ccc(C(F)(F)F)cc3)[nH]2)cc1`
Out: true

In: Please state whether IC50 is below 200 nM for `O=S(=O)(CCc1ccc(C(F)(F)F)cc1)c1ccc(S(=O)(=O)Nc2nccs2)cc1`
Out: true

In: Please state whether IC50 is below 200 nM for `O=C(COc1ccc(F)cc1)N1CCc2cc(S(=O)(=O)Nc3nccs3)ccc21`
Out: false

In: Please state whether IC50 is below 200 nM for `O=C(c1ccc(S(=O)(=O)Nc2ncns2)c(F)c1)N1CCC(c2noc(-c3ccccc3C(F)(F)F)n2)CC1`
Out: false

In: Please state whether IC50 is below 200 nM for `O=S(=O)(Nc1nccs1)c1ccc(-c2nnc(Cc3ccc(Cl)c(Cl)c3)[nH]2)cc1`
Out: true

In: Please state whether IC50 is below 200 nM for `O=C(Cc1ccccc1)Nc1ccc(S(=O)(=O)Nc2nccs2)cc1`
Out: false

In: Please state whether IC50 is below 200 nM for `O=C(NCc1ccc(C(F)(F)F)cc1)c1ccc(S(=O)(=O)Nc2nccs2)cc1`
Out: true

In: Please state whether IC50 is below 200 nM for `O=S(=O)(Nc1ncns1)c1ccc(OCc2ccc(OC(F)(F)F)c(Cl)c2)cc1`
Out: true

In: Please state whether IC50 is below 200 nM for `O=S(=O)(NCc1ccc(C(F)(F)F)cc1)c1ccc(S(=O)(=O)Nc2nccs2)cc1`
Out: true

In: Please state whether IC50 is below 200 nM for `O=C(NCc1ccc(OC(F)(F)F)c(Cl)c1)c1ccc(S(=O)(=O)Nc2ncns2)c(F)c1`
Out: true

In: Please state whether IC50 is below 200 nM for O=S(=O)(Nc1nccs1)c1ccc(S(=O)(=O)N2CCCCC2c2cc(-c3ccccc3)[nH]n2)cc1F (stereo not given)
Out: false

In: Please state whether IC50 is below 200 nM for `O=C(c1ccc(OC(F)(F)F)c(Cl)c1)N1CC(OCc2ccc(S(=O)(=O)Nc3ncns3)cc2)C1`
Out: false

In: Please state whether IC50 is below 200 nM for `O=S(=O)(Nc1nccs1)c1ccc(S(=O)(=O)N2CC[C@H](Oc3ccc(C(F)(F)F)cn3)C2)cc1F`
Out: false

In: Please state whether IC50 is below 200 nM for `O=C(NCc1ccc(OC(F)(F)F)c(Cl)c1)c1ccc(S(=O)(=O)Nc2nccs2)cc1`
Out: true

In: Please state whether IC50 is below 200 nM for `O=C(NCc1ccc(OC(F)(F)F)c(Cl)c1)c1ccc(S(=O)(=O)Nc2cccnn2)c(F)c1`
Out: false

In: Please state whether IC50 is below 200 nM for `O=C(NCc1ccc(OC(F)(F)F)c(Cl)c1)c1ccc(S(=O)(=O)Nc2ncccn2)c(F)c1`
Out: false

In: Please state whether IC50 is below 200 nM for `O=C(NCc1ccccc1)c1ccc(S(=O)(=O)Nc2nccs2)cc1`
Out: false

In: Please state whether IC50 is below 200 nM for `O=S(=O)(Nc1ncns1)c1ccc(Oc2ccc(OC(F)(F)F)c(Cl)c2)cc1`
Out: false
